target: MAPKAPK5 (human) (UniProt Q8IW41); assay: radiometric filter-binding kinase assay, Kinase HotSpot; conditions: compound 0.5 µM; ATP 10 µM
Sequence (Q8IW41 whole entry, looked up): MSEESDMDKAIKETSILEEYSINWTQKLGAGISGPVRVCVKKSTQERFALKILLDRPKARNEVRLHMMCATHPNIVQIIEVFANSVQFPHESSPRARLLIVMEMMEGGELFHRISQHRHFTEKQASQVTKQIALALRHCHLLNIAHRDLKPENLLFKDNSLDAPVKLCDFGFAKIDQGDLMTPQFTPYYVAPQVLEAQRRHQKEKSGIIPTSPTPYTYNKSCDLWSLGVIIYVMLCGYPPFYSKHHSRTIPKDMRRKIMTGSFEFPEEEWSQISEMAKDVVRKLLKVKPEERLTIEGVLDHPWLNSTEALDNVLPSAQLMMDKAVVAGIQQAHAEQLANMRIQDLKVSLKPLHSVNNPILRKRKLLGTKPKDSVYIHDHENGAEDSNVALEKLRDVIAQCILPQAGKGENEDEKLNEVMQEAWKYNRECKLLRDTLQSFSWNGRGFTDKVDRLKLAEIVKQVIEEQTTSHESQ
Property Label: residual activity (%)

>>> recorded_measurement("Cc1cncc2cccc(S(=O)(=O)N3CCCN(C(=O)CN)C[C@H]3C)c12")
94.2
>>> recorded_measurement("CC(C)(C)c1cc(C=C(C#N)C#N)cc(Br)c1O")
97.4
>>> recorded_measurement("COc1cc(Nc2c(C#N)cnc3cc(OCCCN4CCN(C)CC4)c(OC)cc23)c(Cl)cc1Cl")
94.7
>>> recorded_measurement("CN(C)c1ccc(/C=C2\\C(=O)Nc3ccccc32)cc1")
98.6
